Molecular target: T91D (Homo sapiens, UniProt Q8WWM9, T91D)
Assay: UV-Vis difference spectroscopy titration of ferric cytoglobin
Settings: SD, n = 3
measure-name: Kd (µM)

compound: CCCCCCCC/C=C\CCCCCCCC(=O)O [Oleic acid]
target-entity: T91D (Homo sapiens, UniProt Q8WWM9, T91D)
measure-name: Kd
unit-descriptor: µM
endpoint-result: 5.7

---

Molecular target: H81W (Homo sapiens, UniProt Q8WWM9, H81W)
Sequence (Q8WWM9 whole entry H81W): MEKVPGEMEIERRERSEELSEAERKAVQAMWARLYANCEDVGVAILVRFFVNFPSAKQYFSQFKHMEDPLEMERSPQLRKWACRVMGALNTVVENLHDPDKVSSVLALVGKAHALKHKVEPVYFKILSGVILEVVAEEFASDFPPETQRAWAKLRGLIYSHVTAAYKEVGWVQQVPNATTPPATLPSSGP
Test: UV-Vis difference spectroscopy titration of ferric cytoglobin
Assay type: binding
Conditions: SD, n = 3

structure-string: CCCCCCCC/C=C\CCCCCCCC(=O)O
Kd, µM: 32
